Just for reference, patent US20180057604A1 is where these values come from.

Molecular target: T1, murine BACE1 ECD
T1 construct: analyte of the Octet assay (200 nM) and enzyme of the first short substrate assay
T1 sequence (single chain, as listed by the source limits assumed): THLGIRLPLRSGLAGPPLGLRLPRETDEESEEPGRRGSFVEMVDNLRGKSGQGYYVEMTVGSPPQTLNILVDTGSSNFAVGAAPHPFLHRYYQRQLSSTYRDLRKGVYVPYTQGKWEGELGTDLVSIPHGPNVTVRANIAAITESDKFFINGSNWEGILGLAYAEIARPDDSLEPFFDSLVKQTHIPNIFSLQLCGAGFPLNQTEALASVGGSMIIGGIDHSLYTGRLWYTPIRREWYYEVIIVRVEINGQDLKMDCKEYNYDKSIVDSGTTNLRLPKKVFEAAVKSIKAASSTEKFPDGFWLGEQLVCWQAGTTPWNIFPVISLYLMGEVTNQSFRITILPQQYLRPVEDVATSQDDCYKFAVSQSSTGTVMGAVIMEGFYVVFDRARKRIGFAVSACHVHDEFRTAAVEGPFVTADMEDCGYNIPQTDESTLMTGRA
Experiment: Octet, pH 5.0
reported-endpoint: pKd
Scale note: pKd = -log10(concentration in M).

[[record]]
binder = "5260 (antibody, V domains shown, anti-BACE1 IgG) VH: QVQLVQSGAEVKKPGSSVKVSCKASGGTFSSYAISWVRQAPGQGLEWMGSIIPIFGTANYAQKFQGRVTITADESTSTAYMELSSLRSEDTAVYYCARSGGTKYGMLDVWGQGTMVTVSS VL: EIVMTQSPATLSVSPGERATLSCRASQSVGSNLAWYQQKPGQAPRLLIYGASTRATGIPARFSGSGSGTEFTLTISSLQSEDFAVYYCQQAVVWPPRTFGGGTKVEIK"
reported_endpoint = "pKd"
endpoint_value = 6.74

[[record]]
binder = "5875 (antibody, V domains shown, anti-BACE1 IgG) VH: EVQLLESGGGLVQPGGSLRLSCAASGFTFSTYAMGWVRQAPGKGLEWVSATSGSGGSTYYADSVKGRFTISRDNSKNTLYLQMNSLRAEDTAVYYCAKGGSQWLYAPGSWFDPWGQGTLVTVSS VL: EIVLTQSPATLSLSPGERATLSCRASQSVSSYLAWYQQKPGQAPRLLIYDASNRATGIPARFSGSGSGTDFTLTISSLEPEDFAVYYCVQRSNFPWTFGGGTKVEIK"
reported_endpoint = "pKd"
endpoint_value = 6.92

[[record]]
binder = "5883 (antibody, V domains shown, anti-BACE1 IgG) VH: QVQLVQSGAEVKKPGSSVKVSCKASGGTFSSYAISWVRQAPGQGLEWMGGIIPIGGGANYAQKFQGRVTITADESTSTAYMELSSLRSEDTAVYYCARSGGTKYGMLDVWGQGTMVTVSS VL: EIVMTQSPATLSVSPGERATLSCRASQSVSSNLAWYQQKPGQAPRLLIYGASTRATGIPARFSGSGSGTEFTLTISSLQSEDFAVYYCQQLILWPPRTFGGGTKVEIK"
reported_endpoint = "pKd"
endpoint_value = 7.96

[[record]]
binder = "5874 (antibody, V domains shown, anti-BACE1 IgG) VH: EVQLLESGGGLVQPGGSLRLSCAASGFTFGSYAMSWVRQAPGKGLEWVSATSGSGGSTYYADSVKGRFTISRDNSKNTLYLQMDSLRAEDTAVYYCAKGGSQWLYAPGSWFDPWGQGTLVTVSS VL: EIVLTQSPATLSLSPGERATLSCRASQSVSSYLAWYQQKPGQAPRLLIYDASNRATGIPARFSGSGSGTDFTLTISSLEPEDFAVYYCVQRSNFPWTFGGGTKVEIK"
reported_endpoint = "pKd"
endpoint_value = 6.70

[[record]]
binder = "5876 (antibody, V domains shown, anti-BACE1 IgG) VH: EVQLLESGGGLVQPGGSLRLSCAASGFTFSSRAMGWVRQAPGKGLEWVSATSGSGGSIYYADSVKGRFTISRDNSKNTLYLQMNSLRAEDTAVYYCAKGGSQWLYAPGSWFDPWGQGTLVTVSS VL: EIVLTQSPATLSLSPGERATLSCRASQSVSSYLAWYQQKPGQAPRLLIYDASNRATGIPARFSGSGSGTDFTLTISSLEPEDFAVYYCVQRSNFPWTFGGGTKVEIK"
reported_endpoint = "pKd"
endpoint_value = 7.37

[[record]]
binder = "5571 (antibody, V domains shown, anti-BACE1 IgG) VH: QVQLVQSGAEVKKPGSSVKVSCKASGGTFSSYAISWVRQAPGQGLEWMGNIIPIFGTANYAQKFQGRVTITADESTSTAYMELSSLRSEDTAVYYCARSGGTKYGMLDVWGQGTVVTVSS VL: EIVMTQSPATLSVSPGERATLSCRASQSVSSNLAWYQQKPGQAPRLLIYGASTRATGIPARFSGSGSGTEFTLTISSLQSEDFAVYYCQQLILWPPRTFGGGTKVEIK"
reported_endpoint = "pKd"
endpoint_value = 8.08

[[record]]
binder = "5881 (antibody, V domains shown, anti-BACE1 IgG) VH: EVQLLESGGGLVQPGGSLRLSCAASGFTFSKYAMSWVRQAPGKGLEWVSAISGSGISTPYADSVKGRFTISRDNSKNTLYLQMNSLRAEDTAVYYCAKGAGHGSYVKGWFDPWGQGTLVTVSS VL: EIVLTQSPATLSLSPGERATLSCRASQSVSSYLAWYQQKPGQAPRLLIYDASNRATGIPARFSGSGSGTDFTLTISSLEPEDFAVYYCQQSVNFPFTFGGGTKVEIK"
reported_endpoint = "pKd"
endpoint_value = 7.82

[[record]]
binder = "5747 (antibody, V domains shown, anti-BACE1 IgG) VH: QLQLQESGPGLVKPSETLSLTCTVSGGSISSSSYYWGWIRQPPGKGLEWIGNIYYSGSTYYNPSLKSRVTISVDTSKNQFSLKLSSVTAADTAVYYCARLGHGYSYFDLWGRGTLVTVSS VL: EIVLTQSPATLSLSPGERATLSCRASQSVSSYLAWYQQKPGQAPRLLIYDASNRATGIPARFSGSGSGTDFTLTISSLEPEDFAVYYCQQVYLWPPRTFGGGTKVEIK"
reported_endpoint = "pKd"
endpoint_value = 8.51

[[record]]
binder = "5887 (antibody, V domains shown, anti-BACE1 IgG) VH: QVQLVQSGAEVKKPGSSVKVSCKASGGTFRGYAISWVRQAPGQGLEWMGNIIPGFGTANYAQKFQGRVTITADESTSTAYMELSSLRSEDTAVYYCARSGGTKYGMLDVWGQGTMVTVSS VL: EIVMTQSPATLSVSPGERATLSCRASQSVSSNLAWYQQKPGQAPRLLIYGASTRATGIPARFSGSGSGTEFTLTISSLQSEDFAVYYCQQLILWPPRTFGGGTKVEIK"
reported_endpoint = "pKd"
endpoint_value = 8.64


Please supply the value of reported pKd for the item 5644 (antibody, V domains shown, anti-BACE1 IgG) VH: QLQLQESGPGLVKPSETLSLTCTVSGGSISSSSYYWGWIRQPPGKGLEWIGSIYYSGSTYYNPSLKSRVTISVDTSKNQFSLKLSSVTAADTAVYYCARVGHGISYFDLWGRGTLVTVSS VL: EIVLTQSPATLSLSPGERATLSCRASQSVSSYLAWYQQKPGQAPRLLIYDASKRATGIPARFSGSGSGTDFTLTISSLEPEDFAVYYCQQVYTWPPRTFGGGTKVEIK
7.96
